Values from patent US20240376097A1

Test: Metabolic Stability Study, liver microsome incubation (human)
Type: in vitro ADME
Conditions: human liver microsomes 0.5 mg/mL, 1 μM compound, NADPH; read-out: CLint (μL × min^−1 × mg^−1) Human
Method: Biological Example: Metabolic Stability Study The metabolic stability of some compounds was evaluated by using the liver microsome incubation system in vitro. […] Samples were quenched at three time points (0, 30, 60 min) with organic solvent containing internal standards, and the supernatant was analyzed for parent loss via LC-MS/MS. […] The value of CLint and T1/2 of Example F132b in WO2019210818 and representative compounds of the disclosure were determined, and the results are shown in Table 5.
# if measured microsomal CLint at 1 μM < 5 µL/min/mg: true  # else: false

COMPOUND	LABEL
[2H]C([2H])([2H])Oc1ccc(CN2CCN(C3CC4(CCN(c5ccc(C(=O)NS(=O)(=O)c6ccc(NC[C@H]7CC[C@](C)(O)CC7)c([N+](=O)[O-])c6)c(Oc6cnc7[nH]cc(F)c7c6)c5)CC4)C3)[C@H](c3ccccc3C(C)C)C2)cc1OC([2H])([2H])[2H]	false

# input # check: microsomal CLint at 1 μM < 5 µL/min/mg for CC(C)c1ccccc1C1CN(Cc2cccc(F)c2)CCN1C1CC2(CCN(c3ccc(C(=O)NS(=O)(=O)c4ccc(NC[C@H]5CC[C@](C)(O)CC5)c([N+](=O)[O-])c4)c(Oc4cnc5[nH]ccc5c4)c3)CC2)C1 (stereo partly shown)
# output false

# input # check: microsomal CLint at 1 μM < 5 µL/min/mg for "COc1ccc(CN2CCN(C3CC4(C3)CN(c3ccc(C(=O)NS(=O)(=O)c5ccc(NC[C@H]6CC[C@](C)(O)CC6)c([N+](=O)[O-])c5)c(Oc5cnc6[nH]ccc6c5)c3)C4)[C@H](c3ccccc3C(C)C)C2)cc1OC"
# output true

# input # check: microsomal CLint at 1 μM < 5 µL/min/mg for "COc1ccc(CN2CCN(C3CC4(CCN(c5ccc(C(=O)NS(=O)(=O)c6ccc(NC[C@H]7CC[C@](C)(O)CC7)c([N+](=O)[O-])c6)c(Oc6cnc7[nH]cc(F)c7c6)c5)CC4)C3)[C@H](c3ccccc3C(C)C)C2)cc1OC"
# output true

# input # check: microsomal CLint at 1 μM < 5 µL/min/mg for "COc1cc(CN2CCN(C3CC4(C3)CN(c3ccc(C(=O)NS(=O)(=O)c5ccc(NC[C@H]6CC[C@](C)(O)CC6)c([N+](=O)[O-])c5)c(Oc5cnc6[nH]cc(F)c6c5)c3)C4)[C@H](c3ccccc3C(C)C)C2)cc2c1OCCC2"
# output true

----------
Target: Recombinant human Bcl-2 protein (Homo sapiens (Human))
Sequence (P10415 whole entry): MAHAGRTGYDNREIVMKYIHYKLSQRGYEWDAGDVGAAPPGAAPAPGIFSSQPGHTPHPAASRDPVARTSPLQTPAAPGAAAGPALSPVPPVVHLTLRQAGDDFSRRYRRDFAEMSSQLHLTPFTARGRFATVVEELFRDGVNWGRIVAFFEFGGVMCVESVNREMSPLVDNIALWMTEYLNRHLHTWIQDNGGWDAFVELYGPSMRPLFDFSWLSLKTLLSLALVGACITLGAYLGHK
Assay: Bcl-2 TR-FRET Assay
Format: binding
Details: wild type Bcl-2; unit inferred; read-out: Bcl-2 WT
Description: Biological Example: Bcl-2 TR-FRET Assay Compounds disclosed herein were tested for blocking of Bcl-2 protein with its ligand in an assay based on Time-Resolved Fluorescence Resonance Energy Transfer (TR-FRET) methodology. […] The TR-FRET signals (337 nm-520 nm-490 nm) were read on BMG PHERAstar FSX instrument. The inhibition percentage of Bcl-2 interaction with its ligand in presence of increasing concentrations of compounds was calculated based on the TR-FRET signals. […]
Entries annotated with measured IC50
Please respond with the number in nM and leave the unit unwritten.

COMPOUND	IC50 [nM]
COc1ccc(CN2CCN(C3CC4(CCN(c5ccc(C(=O)NS(=O)(=O)c6ccc(NC[C@H]7CC[C@](C)(O)CC7)c([N+](=O)[O-])c6)c(Oc6cnc7[nH]ccc7c6)c5)CC4)C3)[C@@H](c3ccccc3C(C)C)C2)cc1 [Example 19b]	0.16
COc1ccc(CN2CCN(C3CC4(CCN(c5ccc(C(=O)NS(=O)(=O)c6ccc(NC[C@H]7CC[C@](C)(O)CC7)c([N+](=O)[O-])c6)c(Oc6cnc7[nH]ccc7c6)c5)CC4)C3)[C@H](c3ccccc3C(C)C)C2)cn1	0.031
COc1ccc(CN2CCN(C3CC4(C3)CN(c3ccc(C(=O)NS(=O)(=O)c5ccc(NC[C@H]6CC[C@](C)(O)CC6)c([N+](=O)[O-])c5)c(Oc5cnc6[nH]cc(Cl)c6c5)c3)C4)[C@H](c3ccccc3C(C)C)C2)cc1OC	0.12

# input Supply recorded IC50 for COc1ccc(CN2CCN(C3CC4(CCN(c5ccc(C(=O)NS(=O)(=O)c6ccc(NCC7CCC(CO)O7)c([N+](=O)[O-])c6)c(Oc6cnc7[nH]ccc7c6)c5)CC4)C3)[C@H](c3ccccc3C(C)C)C2)cc1 (stereo partly shown) here.
# output 0.044
